# protocol.text: BSK_CASM3C_Proliferation: Cell Proliferation Assessment in the BioMAP Diversity Plus: CASM3C Assay (AID 2283047);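 note: sulforhodamine B total protein stain as relative cell number at 560 nm; sub-confluent cells exposed 48 h before staining; fitted both ways against DMSO so gain or loss of cell number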
# test.settings: primary human coronary artery smooth muscle cells
Activity calls are given as the source filed them. Rule for the calls: active = hit-call score of the fitted dose curve at least 0.9, where 1 is the maximum; inactive = score below 0.9.
Outcomes: active, inactive

{"compound": "CCCC(CCC)C(=O)O", "discrete.label": "inactive"}
{"compound": "OCc1c[nH]c2ccccc12", "discrete.label": "inactive"}
{"compound": "OCC(CO)(CO)CO", "discrete.label": "inactive"}
{"compound": "c1ccc2ncccc2c1", "discrete.label": "inactive"}
{"compound": "COCc1nnc(-c2ccc[n+]([O-])c2)n1-c1c(Cl)c(Cl)cc2[nH]c(=O)c(=O)[nH]c12", "discrete.label": "inactive"}
{"compound": "O=C(NO)C1(NS(=O)(=O)c2ccc(Oc3ccc(F)cc3)cc2)CCOCC1", "discrete.label": "inactive"}
{"compound": "c1ccc2c(c1)-c1cccc3c1c-2cc1ccccc13", "discrete.label": "inactive"}
{"compound": "FC(F)=C(F)C(F)(F)C(F)(F)C(F)(F)C(F)(F)C(F)(F)C(F)(F)F", "discrete.label": "inactive"}
{"compound": "CCCCCCCCCCCCCCO", "discrete.label": "active"}
{"compound": "CCCCC(CC)C(=O)OCCOCCOCCOC(=O)C(CC)CCCC (stereo not drawn)", "discrete.label": "inactive"}
{"compound": "FC(F)(F)C(F)(F)C(F)(F)C(F)(F)C(F)(F)C(F)(F)I", "discrete.label": "inactive"}
{"compound": "Cc1nc(-c2ccccn2)ncc1C(=O)Nn1cc(C)c2cc(F)ccc21", "discrete.label": "active"}
{"compound": "C[Si](C)(C)C(F)(F)C(F)(F)C(F)(F)F", "discrete.label": "inactive"}
{"compound": "OC[C@H]1O[C@@H]2O[C@H]3[C@H](O)[C@@H](O)[C@@H](O[C@H]4[C@H](O)[C@@H](O)[C@@H](O[C@H]5[C@H](O)[C@@H](O)[C@@H](O[C@H]6[C@H](O)[C@@H](O)[C@@H](O[C@H]7[C@H](O)[C@@H](O)[C@@H](O[C@H]1[C@H](O)[C@H]2O)O[C@@H]7CO)O[C@@H]6CO)O[C@@H]5CO)O[C@@H]4CO)O[C@@H]3CO", "discrete.label": "inactive"}
{"compound": "OC(O)(C(F)C(O)(O)C(F)(F)F)C(F)(F)F", "discrete.label": "inactive"}
{"compound": "Cc1cccc(O)c1C", "discrete.label": "inactive"}
{"compound": "CC(C)c1nnc2ccc(-c3ocnc3-c3cc(F)ccc3F)cn12", "discrete.label": "inactive"}
{"compound": "C[C@@H](Oc1ccc(CNC(=O)c2cccnc2Oc2ccc3c(c2)OCO3)c(F)c1)C(=O)O", "discrete.label": "inactive"}
{"compound": "OCCNCCO", "discrete.label": "inactive"}
{"compound": "Cc1ccc(S(=O)(=O)NC(=O)NN2CCCCCC2)cc1", "discrete.label": "inactive"}
{"compound": "C=CCc1cc(S(=O)(=O)c2ccc(O)c(CC=C)c2)ccc1O", "discrete.label": "active"}
{"compound": "CCn1nc(C)c2c1C(=O)NCC(c1ccc(O)cc1)=N2", "discrete.label": "active"}
{"compound": "O=C(O)c1ccc2c(c1)nc(C(=O)NC1CCN(C3CC3)CC1)n2Cc1cc(-c2ccc(Cl)s2)on1", "discrete.label": "inactive"}
{"compound": "NC(=O)NN=Cc1ccc([N+](=O)[O-])o1", "discrete.label": "inactive"}
{"compound": "Cn1c(=O)c2[nH]cnc2n(C)c1=O", "discrete.label": "inactive"}
{"compound": "NCC(F)(F)C(F)(F)C(F)(F)C(F)(F)F", "discrete.label": "inactive"}
{"compound": "OCCOCCOCCO", "discrete.label": "inactive"}
{"compound": "O=S(=O)(O)c1ccc(N=Nc2c(O)ccc3cc(S(=O)(=O)O)ccc23)cc1", "discrete.label": "inactive"}
{"compound": "FC(F)C(F)(F)COCC1CO1 (stereo not drawn)", "discrete.label": "inactive"}
{"compound": "NC(=O)N(O)[C@@H]1COc2cc(OCc3ccccc3)ccc21", "discrete.label": "inactive"}
{"compound": "CCCCOC(=O)c1ccccc1", "discrete.label": "inactive"}
{"compound": "CCN(CC)C(=S)SSC(=S)N(CC)CC", "discrete.label": "active"}
{"compound": "CCc1ccc(O)c(C(C)(C)C)c1", "discrete.label": "active"}
{"compound": "OC(CCl)CCl", "discrete.label": "inactive"}
{"compound": "CCCCCCCCN(C)C", "discrete.label": "inactive"}
{"compound": "O=C(O)c1cccc(C[C@@H]2COc3ccc(OCc4nc5cc(F)ccc5s4)cc3[C@@H]2O)c1", "discrete.label": "active"}
{"compound": "COS(C)(=O)=O", "discrete.label": "inactive"}
{"compound": "C[C@]12C=CC(=O)C=C1CC[C@H]1[C@@H]3C[C@@H](O)[C@](O)(C(=O)CO)[C@@]3(C)C[C@H](O)[C@@]12F", "discrete.label": "inactive"}
{"compound": "O=c1[nH]cnc2c1ncn2[C@H]1CC[C@@H](CO)O1", "discrete.label": "inactive"}
{"compound": "CCCCN1C(=O)[C@@H]([C@H](O)C2CCCCC2)NC(=O)C12CCN(Cc1ccc(Oc3ccc(C(=O)O)cc3)cc1)CC2", "discrete.label": "active"}
{"compound": "O=C1CN(N=Cc2ccc([N+](=O)[O-])o2)C(=O)N1", "discrete.label": "inactive"}
{"compound": "CC(C)CCCCCCOC(=O)C1CCCCC1C(=O)OCCCCCCC(C)C (stereo not drawn)", "discrete.label": "inactive"}
{"compound": "CC(=O)c1ccccc1", "discrete.label": "inactive"}
{"compound": "FC(F)(F)COC(OCC(F)(F)F)OCC(F)(F)F", "discrete.label": "inactive"}
{"compound": "CCc1cccc(CC)c1N", "discrete.label": "inactive"}
{"compound": "OC(Cn1cncn1)(Cn1cncn1)c1ccc(F)cc1F", "discrete.label": "inactive"}
{"compound": "CCCCCCCC/C=C\\CCCCCCCC(=O)OC[C@@H](O)[C@H]1OC[C@H](O)[C@H]1O", "discrete.label": "inactive"}
{"compound": "CCCCCOC(C)=O", "discrete.label": "inactive"}
